compounds and their reported pIC50
Target: interaction of human SOS1 (SOS1) with human K-RasG12C (Homo sapiens (Human), UniProt Q07889)
Sequence (Q07889 564-1049 limits assumed): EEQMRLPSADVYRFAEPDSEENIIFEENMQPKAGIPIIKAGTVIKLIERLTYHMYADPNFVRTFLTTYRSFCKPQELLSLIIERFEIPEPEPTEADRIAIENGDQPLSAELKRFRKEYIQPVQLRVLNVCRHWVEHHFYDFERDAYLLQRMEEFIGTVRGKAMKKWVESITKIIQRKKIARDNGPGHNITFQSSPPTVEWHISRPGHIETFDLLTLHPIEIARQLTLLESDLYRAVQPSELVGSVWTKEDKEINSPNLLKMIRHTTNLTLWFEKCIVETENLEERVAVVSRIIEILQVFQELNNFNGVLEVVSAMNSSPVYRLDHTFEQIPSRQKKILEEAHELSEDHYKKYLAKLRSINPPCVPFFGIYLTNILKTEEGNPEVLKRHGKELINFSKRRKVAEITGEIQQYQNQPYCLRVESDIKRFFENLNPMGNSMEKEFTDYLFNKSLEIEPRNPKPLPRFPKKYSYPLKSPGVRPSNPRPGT
Assay: Biochemical assay: hK-RasG12C interaction assay with hSOS1 (HTRF)
Conditions: GST-hK-RasG12C with His-hSOS1, 60 min incubation at 20° C., mean, read-out: K-RasG12C - SOS interaction assay IC50 (mean)
pIC50: −log10 of the molar value.
quantity: pIC50

{"columns": ["compound", "quantity", "measured"],
 "data": [
  ["CC(=O)N1CCP(=O)(c2cc3c(N[C@H](C)c4cccc(C(F)(F)C(=O)N(C)C)c4F)nc(C)nc3cn2)CC1", "pIC50", 7.77],
  ["COCc1nc(P2(=O)CCN(C(C)=O)CC2)cc2c(N[C@H](C)c3cccc(C(F)(F)F)c3C)nc(C)nc12", "pIC50", 8.01],
  ["CCP(C)(=O)c1cc2c(N[C@H](C)c3cccc(C(F)(F)CO)c3F)nc(C)nc2cn1 (stereo partly shown) [Example 130]", "pIC50", 7.79],
  ["CCP(C)(=O)c1cc2c(N[C@H](C)c3cccc(C(F)(F)C(C)O)c3F)nc(C)nc2cn1 (single isomer, unassigned) [Example 78]", "pIC50", 7.66],
  ["Cc1nc(N[C@H](C)c2cc(N)cc(C(F)(F)F)c2)c2cc(P3(=O)CCCC3)ncc2n1", "pIC50", 7.62],
  ["Cc1nc(N[C@H](C)c2cccc(C(F)(F)C(C)O)c2F)c2cc(P(C)(=O)C(C)C)ncc2n1 (single isomer, unassigned) [Example 84]", "pIC50", 7.62],
  ["Cc1nc(N[C@H](C)c2cccc(C(F)(F)C(C)(C)O)c2F)c2cc(P(C)(C)=O)nc(O)c2n1", "pIC50", 8.04],
  ["Cc1nc(N[C@H](C)c2cccc(C(F)F)c2F)c2cc(P3(=O)CCN(C(=O)C4(C#N)CC4)CC3)ncc2n1", "pIC50", 7.90],
  ["CCOC(=O)N1CCP(=O)(c2cc3c(N[C@H](C)c4cccc(C(F)F)c4F)nc(C)nc3cn2)CC1", "pIC50", 7.92],
  ["Cc1nc(N[C@H](C)c2cccc(C(F)(F)F)c2C)c2cc(P3(=O)CCN(C(=O)C(C)C)CC3)ncc2n1", "pIC50", 8.17],
  ["CC(=O)N1CCP(=O)(c2cc3c(N[C@H](C)c4cccc(C(F)(F)C(=O)O)c4F)nc(C)nc3cn2)CC1", "pIC50", 6.43],
  ["Cc1nc(N[C@H](C)c2cccc(C(F)(F)CO)c2F)c2cc(P(C)(=O)C(C)C)ncc2n1 (single isomer, unassigned) [Example 135]", "pIC50", 7.77],
  ["Cc1nc(N[C@H](C)c2cccc(C(F)(F)F)c2C)c2cc(P(C)(C)=O)c(C)nc2n1", "pIC50", 7.97],
  ["CC(=O)N1CCP(=O)(c2cc3c(N[C@H](C)c4cccc(C(F)F)c4C)nc(C)nc3cn2)CC1", "pIC50", 8.23],
  ["Cc1nc(N[C@H](C)c2cccc(C(F)(F)[C@@H](C)O)c2F)c2cc(P(C)(C)=O)ncc2n1 (relative stereo)", "pIC50", 8.11],
  ["COc1nc2nc(C)nc(N[C@H](C)c3cccc(C(F)(F)F)c3C)c2cc1P1(=O)CCN(C(C)=O)CC1", "pIC50", 8.71],
  ["Cc1nc(N[C@H](C)c2cccc(C(F)(F)C(C)O)c2F)c2cc(P3(=O)CCCC3)ncc2n1 (single isomer, unassigned) [Example 111]", "pIC50", 7.67],
  ["CC(=O)N1CCP(=O)(c2cc3c(N[C@H](C)c4cccc(C(F)(F)F)c4C)nc(C)nc3cn2)CC1", "pIC50", 8.20],
  ["CC(=O)N(C)CC(F)(F)c1cccc([C@@H](C)Nc2nc(C)nc3cnc(P4(=O)CCN(C(C)=O)CC4)cc23)c1F", "pIC50", 8.24]
]}

====

Target: interaction of human SOS1 (SOS1) with human K-RasG12C (Homo sapiens (Human), UniProt Q07889)
Experiment: Biochemical assay: hK-RasG12C interaction assay with hSOS1 (HTRF)
Details: GST-hK-RasG12C with His-hSOS1, 60 min incubation at 20° C., mean, read-out: K-RasG12C - SOS interaction assay IC50 (mean)
API: label(entry) gives TRUE if the entry's IC50 is strictly smaller than 20 nM; on equality or larger values it gives FALSE.

{"columns": ["compound", "classification"],
 "data": [
  ["CCP(C)(=O)c1cc2c(N[C@H](C)c3cccc(C(F)F)c3F)nc(C)nc2cn1 (single isomer, unassigned) [Example 119]", "FALSE"],
  ["CC(=O)N1CCP(=O)(c2ccc3nc(C)nc(N[C@H](C)c4cccc(C(F)(F)F)c4C)c3c2)CC1 [Example 197]", "TRUE"],
  ["CC(=S)N1CCP(=O)(c2cc3c(N[C@H](C)c4cccc(C(F)(F)F)c4C)nc(C)nc3cn2)CC1 [Example 32]", "TRUE"],
  ["Cc1nc(N[C@H](C)c2cccc(C(F)(F)C(C)O)c2F)c2cc(P(C)(=O)C(C)C)ncc2n1 (single isomer, unassigned) [Example 82]", "FALSE"],
  ["Cc1nc(N[C@H](C)c2cccc(C(F)F)c2F)c2cc(P3(=O)CCN(C(=O)C4(F)CC4)CC3)ncc2n1 [Example 151]", "TRUE"],
  ["CCc1nc(P(C)(C)=O)cc2c(N[C@H](C)c3cccc(C(F)(F)C(O)CC)c3F)nc(C)nc12 (mixture of isomers) [Example 38]", "TRUE"],
  ["CCCCC(C)(O)C(F)(F)c1cccc([C@@H](C)Nc2nc(C)nc3cnc(P(C)(C)=O)cc23)c1F (mixture of isomers) [Example 23]", "TRUE"],
  ["Cc1nc(N[C@H](C)c2cccc(C(F)(F)F)c2C)c2cc(P3(=O)CCN(C(=O)C(F)F)CC3)ncc2n1 [Example 203]", "TRUE"],
  ["Cc1nc(N[C@H](C)c2cccc(C(F)(F)C(O)C(C)(C)C)c2F)c2cc(P(C)(C)=O)ncc2n1 (stereo in doubt) [Example 136]", "FALSE"]
]}

====

In this section, each of the molecules is paired with its reported IC50.
Target: interaction of human SOS1 (SOS1) with human K-RasG12C (Homo sapiens (Human), UniProt Q07889)
Test: Biochemical assay: hK-RasG12C interaction assay with hSOS1 (HTRF)
Conditions: GST-hK-RasG12C with His-hSOS1, 60 min incubation at 20° C., mean, read-out: K-RasG12C - SOS interaction assay IC50 (mean)

{"columns": ["compound structure string", "IC50, nM"],
 "data": [
  ["Cc1nc(N[C@H](C)c2cccc(C(F)(F)CO)c2F)c2cc(P3(=O)CCCC3)ncc2n1", 10.1],
  ["Cc1nc(N[C@H](C)c2cccc(C(F)(F)F)c2Cl)c2cc(P3(=O)CCN(C(=O)C(F)F)CC3)ncc2n1", 5.96],
  ["Cc1nc(N[C@H](C)c2cccc(C(F)(F)C(C)(C)O)c2F)c2cc(P3(=O)CCCC3)c(C)nc2n1", 7.21]
]}
